Target: Broad substrate specificity ATP-binding cassette transporter ABCG2 (Homo sapiens, UniProt Q9UNQ0)
Sequence (Q9UNQ0 whole entry): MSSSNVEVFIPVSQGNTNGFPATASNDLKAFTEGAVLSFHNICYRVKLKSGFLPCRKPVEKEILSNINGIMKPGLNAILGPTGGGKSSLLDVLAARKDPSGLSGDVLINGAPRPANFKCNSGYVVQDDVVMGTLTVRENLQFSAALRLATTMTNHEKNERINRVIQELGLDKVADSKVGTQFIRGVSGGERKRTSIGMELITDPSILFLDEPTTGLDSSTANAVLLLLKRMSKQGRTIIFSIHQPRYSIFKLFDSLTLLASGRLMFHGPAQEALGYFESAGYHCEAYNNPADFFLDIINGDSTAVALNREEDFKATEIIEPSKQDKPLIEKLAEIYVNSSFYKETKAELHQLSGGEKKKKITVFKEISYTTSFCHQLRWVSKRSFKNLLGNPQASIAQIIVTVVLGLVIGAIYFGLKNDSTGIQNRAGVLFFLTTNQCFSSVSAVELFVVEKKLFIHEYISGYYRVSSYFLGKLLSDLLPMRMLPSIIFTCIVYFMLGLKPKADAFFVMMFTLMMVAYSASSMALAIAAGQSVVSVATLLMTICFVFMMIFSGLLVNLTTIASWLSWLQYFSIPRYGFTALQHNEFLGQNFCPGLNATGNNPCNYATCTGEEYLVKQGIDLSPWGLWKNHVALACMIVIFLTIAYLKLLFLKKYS
Assay: TP_TRANSPORTER: increase in mitoxantrone intracellular accumulation in BCRP-expressing HEK cells
Type: functional, cell-based, HEK293
I'd appreciate it if you could supply pIC50 values for the items below.
Give only the number. pIC50 is defined as minus log10 of concentration in molar units.

pIC50 reading for CC(C)(C)NC(=O)[C@@H]1C[C@@H]2CCCC[C@@H]2CN1C[C@@H](O)[C@H](Cc1ccccc1)NC(=O)[C@H](CC(N)=O)NC(=O)c1ccc2ccccc2n1 : 4.71

pIC50 reading for Cc1c(O)cccc1C(=O)N[C@@H](CSc1ccccc1)[C@H](O)CN1C[C@H]2CCCC[C@H]2C[C@H]1C(=O)NC(C)(C)C : 4.90
